Tested on: Yej^+rimL^− strain
Experiment: organism not typed
Type: cell-based
Details: supernatant treated with trypsin 50 μg/mL, 37 °C, 3 h, pH 6.8; agar diffusion, 37 °C 24 h; dash = no zone
Where a SMILES comes first, the peptide text is derived from it.
RESULT TYPE: Diameters of the inhibition zones, Trypsin-Treated Group, Yej^+rimL^− (mm)
Write the value in mm as a bare number.

Query :: For the molecule CSCC[C@H](NC=O)C(=O)N[C@@H](CCCCN)C(=O)N[C@H](C(=O)NCC(=O)N[C@@H](CC(N)=O)C(=O)N[C@@H](C)C(=O)N[C@@H](CC(=O)O)C(=O)NP(=O)(OCCCN)OC[C@H]1O[C@@H](n2cnc3c(N)ncnc32)[C@H](O)[C@@H]1O)[C@@H](C)O (stereo partly shown) [R2K] (HELM PEPTIDE1{[O=C[*:2]].M.K.T.G.N.A.[NCCCOP(=O)(NC(=O)[C@H](CC(=O)O)N[*:1])OC[C@H]1O[C@@H](n2cnc3c(N)ncnc32)[C@H](O)[C@@H]1O]}$$$$V2.0) , what Diameters of the inhibition zones, Trypsin-Treated Group, Yej^+rimL^− is on record?
Result :: 0

====

molecules and their reported Diameters of the inhibition zones, Trypsin-Untreated Group, Yej^+rimL^−
System: Yej^+rimL^− strain
Assay: organism not typed
Assay type: cell-based
Conditions: agar diffusion; 200 μL fermentation supernatant; 1 × 10^5 CFU/mL; 4 °C 1 h then 37 °C 24 h; chloramphenicol 100 μL of 0.25 μg/mL; dash = no zone
Procedure: To analyze the antimicrobial ability of the variants, we measured the inhibition zones of all 21 variants by the agar diffusion method. The peptide moiety of McC was recognized by a YejABEf-peptide transporter. […] The fermentation supernatants and pure products were used to characterize the bacteriostatic effects of McC variants by the agar diffusion and microdilution methods. […] After incubation at 37 °C for 24 h, the diameters of the inhibition zones were determined. […]
Where a SMILES comes first, the peptide text is derived from it.
Express it in mm; write the number only.

Use the examples below as a reference point.
| MOLECULE | QUANTITATIVE READOUT |
| --- | --- |
| CSCC[C@H](NC=O)C(=O)N[C@@H](Cc1c[nH]cn1)C(=O)N[C@H](C(=O)NCC(=O)N[C@@H](CC(N)=O)C(=O)N[C@@H](C)C(=O)N[C@@H](CC(=O)O)C(=O)NP(=O)(OCCCN)OC[C@H]1O[C@@H](n2cnc3c(N)ncnc32)[C@H](O)[C@@H]1O)[C@@H](C)O (some centres unmarked) [R2H] (HELM PEPTIDE1{[O=C[*:2]].M.H.T.G.N.A.[NCCCOP(=O)(NC(=O)[C@H](CC(=O)O)N[*:1])OC[C@H]1O[C@@H](n2cnc3c(N)ncnc32)[C@H](O)[C@@H]1O]}$$$$V2.0) | 18.39 |
| CSCC[C@H](NC=O)C(=O)N[C@@H](CCCCN)C(=O)N[C@H](C(=O)NCC(=O)N[C@@H](CC(N)=O)C(=O)N[C@@H](C)C(=O)N[C@@H](CC(=O)O)C(=O)NP(=O)(OCCCN)OC[C@H]1O[C@@H](n2cnc3c(N)ncnc32)[C@H](O)[C@@H]1O)[C@@H](C)O (some centres unmarked) [R2K] (HELM PEPTIDE1{[O=C[*:2]].M.K.T.G.N.A.[NCCCOP(=O)(NC(=O)[C@H](CC(=O)O)N[*:1])OC[C@H]1O[C@@H](n2cnc3c(N)ncnc32)[C@H](O)[C@@H]1O]}$$$$V2.0) | 20.91 |
| CSCC[C@H](NC=O)C(=O)N[C@@H](C)C(=O)N[C@H](C(=O)NCC(=O)N[C@@H](CC(N)=O)C(=O)N[C@@H](C)C(=O)N[C@@H](CC(=O)O)C(=O)NP(=O)(OCCCN)OC[C@H]1O[C@@H](n2cnc3c(N)ncnc32)[C@H](O)[C@@H]1O)[C@@H](C)O (some centres unmarked) [R2A] (HELM PEPTIDE1{[O=C[*:2]].M.A.T.G.N.A.[NCCCOP(=O)(NC(=O)[C@H](CC(=O)O)N[*:1])OC[C@H]1O[C@@H](n2cnc3c(N)ncnc32)[C@H](O)[C@@H]1O]}$$$$V2.0) | 21.82 |
| CSCC[C@H](NC=O)C(=O)N[C@@H](CCCNC(=N)N)C(=O)N[C@H](C(=O)NCC(=O)N[C@@H](CC(N)=O)C(=O)N[C@@H](C)C(=O)N[C@@H](CC(=O)O)C(=O)NP(=O)(OCCCN)OC[C@H]1O[C@@H](n2cnc3c(N)ncnc32)[C@H](O)[C@@H]1O)[C@@H](C)O (some centres unmarked) [McC, Microcin C7] (HELM PEPTIDE1{[O=C[*:2]].M.R.T.G.N.A.[NCCCOP(=O)(NC(=O)[C@H](CC(=O)O)N[*:1])OC[C@H]1O[C@@H](n2cnc3c(N)ncnc32)[C@H](O)[C@@H]1O]}$$$$V2.0) | 29.12 |

Now examine the next entry.
Query :: What value of Diameters of the inhibition zones, Trypsin-Untreated Group, Yej^+rimL^− has been recorded for this entry: CSCC[C@H](NC=O)C(=O)NCC(=O)N[C@H](C(=O)NCC(=O)N[C@@H](CC(N)=O)C(=O)N[C@@H](C)C(=O)N[C@@H](CC(=O)O)C(=O)NP(=O)(OCCCN)OC[C@H]1O[C@@H](n2cnc3c(N)ncnc32)[C@H](O)[C@@H]1O)[C@@H](C)O (some centres unmarked) [R2G] (HELM PEPTIDE1{[O=C[*:2]].M.G.T.G.N.A.[NCCCOP(=O)(NC(=O)[C@H](CC(=O)O)N[*:1])OC[C@H]1O[C@@H](n2cnc3c(N)ncnc32)[C@H](O)[C@@H]1O]}$$$$V2.0)
Result :: 18.86

====

Assay: HPLC retention time according to hydrophobicity
Type: physicochemical
Settings: chromatographic, C18 5 μm 9.4 × 250 mm; A 0.1% trichloroacetic acid, B 0.1% trichloroacetic acid with 90% acetonitrile; linear 5% B to 50% B; 1 mL/min; 35 °C; 280 nm; varies according to hydrophobicity
Where a SMILES comes first, the peptide text is derived from it.
RESULT TYPE: Retention Time (min)
Express it in min; write the number only.

| MOLECULE | QUANTITATIVE READOUT |
| --- | --- |
| CSCC[C@H](NC=O)C(=O)N[C@@H](C)C(=O)N[C@H](C(=O)NCC(=O)N[C@@H](CC(N)=O)C(=O)N[C@@H](C)C(=O)N[C@@H](CC(=O)O)C(=O)NP(=O)(OCCCN)OC[C@H]1O[C@@H](n2cnc3c(N)ncnc32)[C@H](O)[C@@H]1O)[C@@H](C)O (some centres unmarked) [R2A] (HELM PEPTIDE1{[O=C[*:2]].M.A.T.G.N.A.[NCCCOP(=O)(NC(=O)[C@H](CC(=O)O)N[*:1])OC[C@H]1O[C@@H](n2cnc3c(N)ncnc32)[C@H](O)[C@@H]1O]}$$$$V2.0) | 17.167 |
| CSCC[C@H](NC=O)C(=O)N[C@@H](CCCNC(=N)N)C(=O)N[C@H](C(=O)NCC(=O)N[C@@H](CC(N)=O)C(=O)N[C@@H](C)C(=O)N[C@@H](CC(=O)O)C(=O)NP(=O)(OCCCN)OC[C@H]1O[C@@H](n2cnc3c(N)ncnc32)[C@H](O)[C@@H]1O)[C@@H](C)O (some centres unmarked) [McC, Microcin C7] (HELM PEPTIDE1{[O=C[*:2]].M.R.T.G.N.A.[NCCCOP(=O)(NC(=O)[C@H](CC(=O)O)N[*:1])OC[C@H]1O[C@@H](n2cnc3c(N)ncnc32)[C@H](O)[C@@H]1O]}$$$$V2.0) | 17.198 |
| CSCC[C@H](NC=O)C(=O)N[C@@H](CCSC)C(=O)N[C@H](C(=O)NCC(=O)N[C@@H](CC(N)=O)C(=O)N[C@@H](C)C(=O)N[C@@H](CC(=O)O)C(=O)NP(=O)(OCCCN)OC[C@H]1O[C@@H](n2cnc3c(N)ncnc32)[C@H](O)[C@@H]1O)[C@@H](C)O (some centres unmarked) [R2M] (HELM PEPTIDE1{[O=C[*:2]].M.M.T.G.N.A.[NCCCOP(=O)(NC(=O)[C@H](CC(=O)O)N[*:1])OC[C@H]1O[C@@H](n2cnc3c(N)ncnc32)[C@H](O)[C@@H]1O]}$$$$V2.0) | 19.622 |
| CSCC[C@H](NC=O)C(=O)N[C@@H](CO)C(=O)N[C@H](C(=O)NCC(=O)N[C@@H](CC(N)=O)C(=O)N[C@@H](C)C(=O)N[C@@H](CC(=O)O)C(=O)NP(=O)(OCCCN)OC[C@H]1O[C@@H](n2cnc3c(N)ncnc32)[C@H](O)[C@@H]1O)[C@@H](C)O (some centres unmarked) [R2S] (HELM PEPTIDE1{[O=C[*:2]].M.S.T.G.N.A.[NCCCOP(=O)(NC(=O)[C@H](CC(=O)O)N[*:1])OC[C@H]1O[C@@H](n2cnc3c(N)ncnc32)[C@H](O)[C@@H]1O]}$$$$V2.0) | 17.004 |

Query :: Retention Time lookup needed for CSCC[C@H](NC=O)C(=O)N[C@H](C(=O)N[C@H](C(=O)NCC(=O)N[C@@H](CC(N)=O)C(=O)N[C@@H](C)C(=O)N[C@@H](CC(=O)O)C(=O)NP(=O)(OCCCN)OC[C@H]1O[C@@H](n2cnc3c(N)ncnc32)[C@H](O)[C@@H]1O)[C@@H](C)O)C(C)C (some centres unmarked) [R2V] (HELM PEPTIDE1{[O=C[*:2]].M.V.T.G.N.A.[NCCCOP(=O)(NC(=O)[C@H](CC(=O)O)N[*:1])OC[C@H]1O[C@@H](n2cnc3c(N)ncnc32)[C@H](O)[C@@H]1O]}$$$$V2.0) , thanks.
Result :: 18.151
